target: HCV NS3/NS4a serine protease (Hepatitis C virus genotype 1b, UniProt P26663); construct: amino terminus of the NS3 protease domain (amino acids 3-181) with a tetrapeptide linker; made in house; host or cells: E. coli; test: Spectrophotometric assay for HCV protease inhibitory activity (chromogenic ester substrates); assay type: biochemical, hepatitis C virus (strain 1b); conditions: Ki, Table 3; rating; single chain NS4A21-32-GSGS-NS3 3-181 protease, 30° C., pH 6.5
Sequence (P26663 1013-1207, looked up, natural form): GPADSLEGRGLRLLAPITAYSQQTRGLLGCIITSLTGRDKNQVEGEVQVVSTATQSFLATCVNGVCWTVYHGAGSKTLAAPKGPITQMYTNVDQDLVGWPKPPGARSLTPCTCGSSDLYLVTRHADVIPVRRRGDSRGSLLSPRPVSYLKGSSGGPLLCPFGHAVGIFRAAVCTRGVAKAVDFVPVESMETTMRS
pKi: −log10 of the molar value.
Measured pKi values are reported for all entries that follow.

[
  {
    "MOLECULE": "CN(C[C@@H](NC(=O)N[C@H](C(=O)N1C[C@H]2[C@@H]([C@H]1C(=O)N[C@@H](CC(F)F)C(=O)NCCCN1CCCC1=O)C2(C)C)C(C)(C)C)C(C)(C)C)S(C)(=O)=O",
    "pKi": "< 6.30"
  },
  {
    "MOLECULE": "CC(CO)NC(=O)[C@H](CC(F)F)NC(=O)[C@@H]1[C@@H]2[C@H](CN1C(=O)[C@@H](NC(=O)N[C@H](CN(C)S(C)(=O)=O)C(C)(C)C)C(C)(C)C)C2(C)C (stereo partly shown)",
    "pKi": "< 6.30"
  },
  {
    "MOLECULE": "CN(C[C@@H](NC(=O)N[C@H](C(=O)N1C[C@H]2[C@@H]([C@H]1C(=O)N[C@@H](CC(F)F)C(=O)NCCc1cccs1)C2(C)C)C(C)(C)C)C(C)(C)C)S(C)(=O)=O",
    "pKi": "> 7.00"
  },
  {
    "MOLECULE": "CN(C[C@@H](NC(=O)N[C@H](C(=O)N1C[C@H]2[C@@H]([C@H]1C(=O)N[C@@H](CC(F)F)C(=O)NCCc1ccc(Br)cc1)C2(C)C)C(C)(C)C)C(C)(C)C)S(C)(=O)=O",
    "pKi": "> 7.00"
  },
  {
    "MOLECULE": "CCOC(=O)N1CCC(NC(=O)[C@H](CC(F)F)NC(=O)[C@@H]2[C@@H]3[C@H](CN2C(=O)[C@@H](NC(=O)N[C@H](CN(C)S(C)(=O)=O)C(C)(C)C)C(C)(C)C)C3(C)C)CC1",
    "pKi": "< 6.30"
  },
  {
    "MOLECULE": "CC(C)OCCCNC(=O)[C@H](CC(F)F)NC(=O)[C@@H]1[C@@H]2[C@H](CN1C(=O)[C@@H](NC(=O)N[C@H](CN(C)S(C)(=O)=O)C(C)(C)C)C(C)(C)C)C2(C)C",
    "pKi": "< 6.30"
  },
  {
    "MOLECULE": "CN(C[C@@H](NC(=O)N[C@H](C(=O)N1C[C@H]2[C@@H]([C@H]1C(=O)N[C@@H](CC(F)F)C(=O)NC1CCCC1)C2(C)C)C(C)(C)C)C(C)(C)C)S(C)(=O)=O",
    "pKi": "< 6.30"
  },
  {
    "MOLECULE": "CN(C[C@@H](NC(=O)N[C@H](C(=O)N1C[C@H]2[C@@H]([C@H]1C(=O)N[C@@H](CC(F)F)C(=O)NCCc1ccc(S(N)(=O)=O)cc1)C2(C)C)C(C)(C)C)C(C)(C)C)S(C)(=O)=O",
    "pKi": "> 7.00"
  },
  {
    "MOLECULE": "CN(C[C@@H](NC(=O)N[C@H](C(=O)N1C[C@H]2[C@@H]([C@H]1C(=O)N[C@@H](CC(F)F)C(=O)NCCc1ccc(Cl)c(Cl)c1)C2(C)C)C(C)(C)C)C(C)(C)C)S(C)(=O)=O",
    "pKi": "> 7.00"
  },
  {
    "MOLECULE": "CN(C[C@@H](NC(=O)N[C@H](C(=O)N1C[C@H]2[C@@H]([C@H]1C(=O)N[C@@H](CC(F)F)C(=O)NS(=O)(=O)c1ccccc1)C2(C)C)C(C)(C)C)C(C)(C)C)S(C)(=O)=O",
    "pKi": "< 6.30"
  },
  {
    "MOLECULE": "CC(NC(=O)[C@H](CC(F)F)NC(=O)[C@@H]1[C@@H]2[C@H](CN1C(=O)[C@@H](NC(=O)N[C@H](CN(C)S(C)(=O)=O)C(C)(C)C)C(C)(C)C)C2(C)C)c1ccccc1 (stereo partly shown)",
    "pKi": "< 6.30"
  },
  {
    "MOLECULE": "COc1ccccc1CNC(=O)[C@H](CC(F)F)NC(=O)[C@@H]1[C@@H]2[C@H](CN1C(=O)[C@@H](NC(=O)N[C@H](CN(C)S(C)(=O)=O)C(C)(C)C)C(C)(C)C)C2(C)C",
    "pKi": "< 6.30"
  },
  {
    "MOLECULE": "CC(C)[C@@H](CO)NC(=O)[C@H](CC(F)F)NC(=O)[C@@H]1[C@@H]2[C@H](CN1C(=O)[C@@H](NC(=O)N[C@H](CN(C)S(C)(=O)=O)C(C)(C)C)C(C)(C)C)C2(C)C",
    "pKi": "< 6.30"
  },
  {
    "MOLECULE": "COc1cc(CCNC(=O)[C@H](CC(F)F)NC(=O)[C@@H]2[C@@H]3[C@H](CN2C(=O)[C@@H](NC(=O)N[C@H](CN(C)S(C)(=O)=O)C(C)(C)C)C(C)(C)C)C3(C)C)cc(OC)c1O",
    "pKi": "6.30 to 7.00"
  },
  {
    "MOLECULE": "CC(CNC(=O)[C@H](CC(F)F)NC(=O)[C@@H]1[C@@H]2[C@H](CN1C(=O)[C@@H](NC(=O)N[C@H](CN(C)S(C)(=O)=O)C(C)(C)C)C(C)(C)C)C2(C)C)c1ccccc1 (stereo partly shown)",
    "pKi": "> 7.00"
  },
  {
    "MOLECULE": "CN(C[C@@H](NC(=O)N[C@H](C(=O)N1C[C@H]2[C@@H]([C@H]1C(=O)N[C@@H](CC(F)F)C(=O)NCCc1cccc(Cl)c1)C2(C)C)C(C)(C)C)C(C)(C)C)S(C)(=O)=O",
    "pKi": "> 7.00"
  },
  {
    "MOLECULE": "CCOCCCNC(=O)[C@H](CC(F)F)NC(=O)[C@@H]1[C@@H]2[C@H](CN1C(=O)[C@@H](NC(=O)N[C@H](CN(C)S(C)(=O)=O)C(C)(C)C)C(C)(C)C)C2(C)C",
    "pKi": "< 6.30"
  },
  {
    "MOLECULE": "CCOc1ccc(CCNC(=O)[C@H](CC(F)F)NC(=O)[C@@H]2[C@@H]3[C@H](CN2C(=O)[C@@H](NC(=O)N[C@H](CN(C)S(C)(=O)=O)C(C)(C)C)C(C)(C)C)C3(C)C)cc1OC",
    "pKi": "> 7.00"
  },
  {
    "MOLECULE": "CN(C[C@@H](NC(=O)N[C@H](C(=O)N1C[C@H]2[C@@H]([C@H]1C(=O)N[C@@H](CC(F)F)C(=O)NCCc1c[nH]cn1)C2(C)C)C(C)(C)C)C(C)(C)C)S(C)(=O)=O",
    "pKi": "< 6.30"
  }
]
